ENDPOINT NAME: melting point

Lab note: measured melting point of NCCOc1ccc(/C(=C(\c2ccccc2)C(F)(F)F)c2ccccc2)cc1 was 71 to 76 °C

The value of melting point measured for the compound COc1cc2c(cc1Nc1ncc(Cl)c(Nc3ccc(N4CCOCC4)cc3)n1)CCN(CC(=O)N(C)C)CC2 turned out to be 227 to 242 °C

The reported melting point of the compound CC(O)=C(C#N)C(=O)Nc1ccc(C(F)(F)F)cc1 was 230 to 233 °C

Lab book: melting point of Cn1ncc2[nH]c3ccc(Cc4cccc(O)c4)cc3c(=O)c21 noted as > 270 °C

Lab book: melting point of CC1(C)CCc2c(N)c(Cl)cc(C(=O)O)c2O1 noted as 165 °C

Documented melting point of CCOc1cc(C(=CC#N)c2ccc(OC)c(F)c2)ccc1OC : 122 to 124 °C

Reported melting point for O=C1C(c2ccccc2)=C(c2ccccc2Cl)C(=O)N1c1ccc(Cl)cc1 was 46 °C

Input CCCCCC/C=C/c1cccc(CCC(COC(C)=O)(COC(C)=O)NC(C)=O)c1 . Output melting point: 84 to 86 °C

melting point for Cn1cc(Cc2ccccc2)c(=O)c(-c2cccc(C(F)(F)F)c2)c1 is 98 to 100 °C

Entry CC(C)(C)OC(=O)n1ccc2c([N+](=O)[O-])c(NC(=O)COCc3ccccc3)ccc21 — recorded melting point = 145 to 146 °C

---

Please provide measured melting point for the entries that follow.

// field: melting point; key: CNC(=O)Nc1cc(C(C)(C)C)c2c(c1)C(C)(C)CO2 ; value = 193 to 194 °C

Entry CC(=O)Nc1nc2c(s1)CCN(Cc1ccccc1)CC2 ; melting point = 129 to 130 °C

CCCCc1ncc(CC(NC(=O)C(c2ccccc2)c2ccccc2)C(=O)O)n1Cc1ccccc1Cl (centres undefined) yielded melting point of 222 to 225 °C

// sample N#Cc1nn(C2CCCC2)c2nc(-c3ccncc3)nc(N)c12 , its melting point was 219 to 221 °C

melting point measured on CC1(C)NC(C[PH](=O)O)C(C)(C)S1 (centres undefined) = 193 to 194 °C

The measured melting point associated with COc1cc(-c2nc3ccc(OCCN4CCCCC4)cc3n2Cc2ccccc2C(F)(F)F)cc(OC)c1OC reads 167 °C

Lab note: measured melting point of Cc1oc(-c2ccccc2)nc1COc1ccc(Cn2cc(CC(=O)O)c(-c3cccs3)n2)cc1 was 98 to 99 °C

Form: molecule = CCCOC(=O)c1ccc(OCCCCCCCc2cc(C)no2)cc1 ; melting point = 54 °C

So, Cc1cc2cc(CN3CCCCCC3)cnc2cc1NC(=O)c1ccc(-c2ccc(F)cc2)cc1F ? Its melting point was 170 °C

---

Give melting point for every item shown.

response.value for CCCC(Oc1ccccc1Br)C(=O)O (stereo not given) (field: melting point) = 63 °C

Memo: CC(C)(C)N1CCN(c2cc3c(cc2F)c(=O)c(C(=O)O)cn3C2CC2)CC1 , reported melting point: 257 to 260 °C

Short answer for COc1ccc2nc(NC(=O)C(CC3CCCC3)c3ccc(S(=O)(=O)CC(C)=O)cc3)sc2n1 (stereo not given) : melting point was 67 to 71 °C

Lookup result for Cc1nc(-c2cc(Cl)ccc2Cl)n2c1nnc1ccc(F)cc12 ; measured melting point: 165 to 168 °C

Please fill in: melting point reported for COc1ccc(C(=O)N2CCc3sccc3C2c2ccc(OC(F)(F)F)cc2)cc1 (stereo not given) = 68 to 70 °C

For this compound ( CN(C)C(=O)NCC(C)(C)c1ccc2nc(-c3ccncc3)[nH]c2c1 ), measured melting point is 136 to 138 °C

Consider CCOC(=O)c1nc(-c2cccc3ccccc23)[nH]c1-c1ccc(C)cc1 . Its measured melting point is 190 to 192 °C

Data point: N#Cc1cnn2c(-c3cccc(F)c3)ccnc12 ; melting point = 222 to 224 °C

Record CN(C(=O)NCCO)C1c2ccccc2Oc2ccccc21 , field melting point: 130 to 132 °C

Measured melting point of C[C@H]1N=C(c2ccccc2F)c2cc([N+](=O)[O-])ccc2NC1=O : 120 °C

The recorded melting point for entry c1ccc(CN2CCN(Cc3c[nH]c4ncccc34)CC2)cc1 equals 153 °C

Per the records, this compound ( COc1ccc(C(=O)N2CCc3cc(S(=O)(=O)N4CCN(c5cccc(Cl)c5)CC4)ccc32)cc1 ) has melting point equal to 193 to 194 °C

Lab note: Nc1nc(CN2CCCN(C(c3ccccc3)c3ccccc3)CC2)cs1 gave melting point of 152 to 156 °C

// field: melting point; key: O=C(CBr)c1ccc2c(c1)CCCS2 ; value = 92 to 94 °C

melting point in this record for O=C1NCCNc2c1sc1ccccc21 : 210 to 212 °C

Memo: CC(C)C[C@@H](/C=C/CCO)NP(=O)(c1ccccc1)c1ccccc1 , reported melting point: 124 °C

Reported melting point of Cc1cc(-c2cccc(S(F)(F)(F)(F)F)c2)c(S(C)(=O)=O)cc1C(=O)NC(=N)N : 169 to 175 °C

The reported melting point of the compound Cc1cnc(-c2ccc3c(c2)c2cc(-c4ccc(Cl)cc4Cl)c(=O)n(C)c2n3C)o1 was 289 to 292 °C

According to the records, this compound Nc1ccc(S(=O)(=O)Nc2ccc(C(O)(C(F)(F)F)C(F)(F)F)cc2)cc1 displays melting point of 160 to 161 °C

The compound listed as Cc1cccc(Nc2cc(Nc3cccc(OCC4CO4)c3)ncn2)c1 (stereo not given) has a reported melting point of 143 to 145 °C

---

Answer each item with its documented melting point.

Measured melting point, COC(=O)c1ccc(OCCNC(=O)c2ccc(F)cc2)cc1 : 105 to 107 °C

So, Cc1n[nH]c2cc(-c3nn(C(C)c4oc5ccc(F)cc5c(=O)c4-c4cccc(F)c4)c4ncnc(N)c34)ccc12 (centres undefined) ? Its melting point was 234 to 236 °C

Quick note, melting point for ON=c1cc(-c2cc3cccn3cn2)oc2ccc(OCCCOc3cccnc3)cc12 landed at 202 to 205 °C

For this molecule ( CSc1ccc(C2=C(c3ccc(C(F)(F)F)cc3)CCC2)cc1 ), measured melting point is 60 to 61.5 °C

melting point in this record for COc1cc2c(cc1OC)C(C)(C)C(/C=C/C(=O)N1CCC(CCCC3CCN(C(=O)/C=C/C4=Cc5cc(OC)c(OC)cc5C4(C)C)CC3)CC1)=C2 : 192 to 194 °C

The molecule O=C(O)C(CCc1ccccc1)NS(=O)(=O)c1ccc2sc3ccccc3c2c1 (centres undefined) showed melting point equal to 148 to 151 °C

Measured melting point of CCOC(=O)C1CCn2c1cc(C)c2C(=O)c1ccc2n1CCS2 (centres undefined) : 146 to 148 °C

// field: melting point; key: CSc1cnc(OCCOc2ncnc(NS(=O)(=O)c3ccc(C(C)(C)C)cc3)c2Br)nc1 ; value = 120 to 121 °C

For CCCCOc1ccc(CO)c(Oc2ncc(C(F)(F)F)cc2Cl)c1 the molecule record lists melting point as 77.8 to 79.2 °C

The value of melting point measured for the molecule COC(=O)c1cscc1OC(C)=O turned out to be 56 to 58 °C

Record summary for COC(=O)c1cc(-c2ccc(Cl)cc2)nn1Cc1ccc(Cl)cc1Cl : reported melting point = 120 °C

The molecule identified as CN(C)c1ccc(NC(=O)N(CC(C)(C)C)C[C@H]2CC[C@H](CN(CC(C)(C)C)C(=O)Nc3ccc(N(C)C)cc3)CC2)cc1 registered its melting point at 178 to 181 °C

Form field melting point, entry COc1nc2cc(Cl)c(Cl)c(C(=O)O)c2nc1OC : 230 to 232 °C

// COc1cc(C(=O)O)c2c(c1OC)OC(C1CC1)C=C2 (centres undefined) : melting point value = 124 to 126 °C

# melting point (molecule: CC(C)Nc1cccnc1N1CCN(C(=O)c2ccc(C(=O)NCCCO)cn2)CC1 ) is 139 to 140 °C

Reported melting point ( CN1CC(CCN2CCOCC2)N(C)c2nc3ccccc3n2C1=O (centres undefined) ) = 149 to 152 °C

Per the records, this molecule ( Nc1ccc2c(c1)C(=O)C2 ) has melting point equal to 92 to 93 °C

// recorded melting point for CCOC(=O)c1cc2cc([Si](C)(C)C)ccc2[nH]1 : 114 to 115 °C

Per the record, O=C(NC(c1ccccc1)c1ccccc1)N1CCC(c2ccccc2)(c2ccccc2)CC1 has melting point of 232 to 234 °C

---

ENDPOINT NAME: melting point

For reference, reported melting point for O=C1CC(=O)CC(CC2CCOCC2)C1 stands at 129 to 130 °C

Form: compound = O=C(CCCC(Cl)=C(C(=O)O)c1csc(NC(=O)OCc2ccccc2)n1)OCc1ccccc1 ; melting point = 146 to 147 °C

Sample N#CSc1nc(Cl)ncc1Br ; melting point observed: 166 to 170 °C

melting point reported for this compound COc1cc2c(cc1O)C(C)(C)CC2=O : 105 to 107 °C

Entry under test: Brc1ccc(-c2nc(-c3cccc(Br)c3)n(-c3ccccc3)n2)cc1 . Its melting point was 129 to 131 °C

// field: melting point; key: O=[N+]([O-])c1cc(F)c(O)c(F)c1 ; value = 98.4 to 101 °C

Quick note, melting point for O=C(O)c1cccc(Cn2ccn(C3CCc4ccccc4C3)c2=S)c1 (stereo unspecified) landed at 252 to 254 °C

Entry O=C1OC(Cc2ccccc2)CN1c1ccccc1 (stereo unspecified) ; melting point = 90 °C

Summary for this compound, CN(C)c1cc(C=O)cc(N(C)C)c1N1CCCCC1 : melting point is 114 to 116 °C

// field: melting point; key: Cc1ccc(S(=O)(=O)OCCCCO[N+](=O)[O-])cc1 ; value = 38 to 40 °C

Measured melting point, Nc1ccc2ccc(OCCN3CCOCC3)nc2n1 : 164 °C
